- TEST SYSTEM: Cyclin-dependent kinase 2/cyclin A (Homo sapiens, UniProt P24941)
- PROTOCOL DESCRIPTION: Inhibition of recombinant CDK2/Cyclin A expressed in insect Sf9 cells assessed as inhibition of [33P]-ATP incorporation into biotinylated histone H1 after 1 hr by liquid scintillation counting
We begin with a simple list: items and their reported pIC50.
# pIC50 is unitless: minus log10 of the molar concentration; print number only

> print(dat)
                                   compound                               test.system  experimental.endpoint  result
1  Cn1cc(-c2cnn3c(N)c(-c4ccncc4)c(C4CCCNC4)nc23)cn1 (stereo not given)  Cyclin-dependent kinase 2/cyclin A (Homo sapiens, UniProt P24941)                  pIC50    4.96

**Query** Record lookup: for Cyclin-dependent kinase 2/cyclin A (Homo sapiens, UniProt P24941), what pIC50 belongs to `Cn1cc(-c2cnn3c(N)c(Br)c(-c4cccnc4)nc23)cn1` ?
**Result** 5.89

**Query** Cyclin-dependent kinase 2/cyclin A (Homo sapiens, UniProt P24941) / pIC50 / Cn1cc(-c2cnn3c(N)c(-c4cccs4)c(C4CCCNC4)nc23)cn1 (stereo not given) : value?
**Result** 6.00

**Query** Query pIC50 on Cyclin-dependent kinase 2/cyclin A (Homo sapiens, UniProt P24941) for Cn1cc(-c2cnn3c(N)c(Br)c(C4CCCNC4)nc23)cn1 (stereo not given)
**Result** 6.80

**Query** Param readout= pIC50; system= Cyclin-dependent kinase 2/cyclin A (Homo sapiens, UniProt P24941); entry= Cn1cc(-c2cnn3c(N)c(C4CC4)c(C4CCCNC4)nc23)cn1 (stereo not given) ; returns value.
**Result** 6.77
